Provenance of the data: the OligoGym collection

molecular target: ZNF653; experiment: pooled miR-30 sensor sort-seq; sequence = guide strand; details: shRNA; note: reference of the scale not given here
measured quantity: sensor-assay potency score (higher = more potent)

* TTTGTCACTGTCAGGGTCTGAG | -0.472
* TTCTTCCTCTTGAAGGACTTGC | -0.65
* TTGGATAAATAGAACTTCTTGC | -0.368
* TTGGCGTCGCTCCAGCCGCTGC | -1.56
* ATGATGGCTGACATGTCGCTGC | -0.928
* TTCCTCTTGAAGGACTTGCCGC | -0.882
* TTGACGTGGTTCTGGAAGCTGC | -0.877
* TTGTACTGCACCTCCGCAGTGT | -0.237
